Data provenance: patent US20250381207A1

# maps each entry to its pIC50
Target: ACE2 (Homo sapiens, UniProt Q9BYF1)
Sequence (Q9BYF1 18-805): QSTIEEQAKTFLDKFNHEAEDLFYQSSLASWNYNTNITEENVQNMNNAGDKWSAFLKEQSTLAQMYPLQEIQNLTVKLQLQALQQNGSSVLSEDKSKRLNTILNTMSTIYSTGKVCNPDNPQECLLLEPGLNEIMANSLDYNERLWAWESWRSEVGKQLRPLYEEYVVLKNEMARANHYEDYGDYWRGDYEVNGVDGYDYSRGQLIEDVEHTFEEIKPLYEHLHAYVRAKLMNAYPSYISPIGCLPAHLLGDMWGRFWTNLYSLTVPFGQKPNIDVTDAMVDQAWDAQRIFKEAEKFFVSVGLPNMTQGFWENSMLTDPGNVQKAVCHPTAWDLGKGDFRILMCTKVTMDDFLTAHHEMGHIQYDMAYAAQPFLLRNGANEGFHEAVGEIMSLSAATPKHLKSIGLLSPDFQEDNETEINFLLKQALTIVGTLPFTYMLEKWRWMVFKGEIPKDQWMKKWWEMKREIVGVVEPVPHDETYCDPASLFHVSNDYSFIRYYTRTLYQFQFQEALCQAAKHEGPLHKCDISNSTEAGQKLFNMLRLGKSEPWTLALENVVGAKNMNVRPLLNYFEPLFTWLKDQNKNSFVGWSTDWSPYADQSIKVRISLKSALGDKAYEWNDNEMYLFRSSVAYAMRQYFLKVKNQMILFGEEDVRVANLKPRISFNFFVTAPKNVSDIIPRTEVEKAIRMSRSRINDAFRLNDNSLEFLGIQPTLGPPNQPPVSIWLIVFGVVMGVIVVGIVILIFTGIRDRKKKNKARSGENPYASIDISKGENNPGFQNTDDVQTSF
Please express pIC50 as -log10 of the molar concentration.

Here's what some known entries look like.
O=C1C[C@@H](c2ccc(O)cc2)Oc2cc(O)cc(O)c21 : 4.44
COc1ccc(-c2cc(=O)c3c(OC)c(OC)c(OC)c(OC)c3o2)cc1OC : 4.58

--- query ---
Ask: Enter reported pIC50 observed with ACE2 (Homo sapiens, UniProt Q9BYF1) for `C[C@@H]1O[C@@H](OC[C@H]2O[C@@H](Oc3c(-c4ccc(O)c(O)c4)oc4cc(O)cc(O)c4c3=O)[C@H](O)[C@@H](O)[C@@H]2O)[C@H](O)[C@H](O)[C@H]1O`
Reply: 4.40
